Biological target: Amine oxidase [copper-containing] 3 (Bos taurus)
Sequence (Q9TTK6 whole entry): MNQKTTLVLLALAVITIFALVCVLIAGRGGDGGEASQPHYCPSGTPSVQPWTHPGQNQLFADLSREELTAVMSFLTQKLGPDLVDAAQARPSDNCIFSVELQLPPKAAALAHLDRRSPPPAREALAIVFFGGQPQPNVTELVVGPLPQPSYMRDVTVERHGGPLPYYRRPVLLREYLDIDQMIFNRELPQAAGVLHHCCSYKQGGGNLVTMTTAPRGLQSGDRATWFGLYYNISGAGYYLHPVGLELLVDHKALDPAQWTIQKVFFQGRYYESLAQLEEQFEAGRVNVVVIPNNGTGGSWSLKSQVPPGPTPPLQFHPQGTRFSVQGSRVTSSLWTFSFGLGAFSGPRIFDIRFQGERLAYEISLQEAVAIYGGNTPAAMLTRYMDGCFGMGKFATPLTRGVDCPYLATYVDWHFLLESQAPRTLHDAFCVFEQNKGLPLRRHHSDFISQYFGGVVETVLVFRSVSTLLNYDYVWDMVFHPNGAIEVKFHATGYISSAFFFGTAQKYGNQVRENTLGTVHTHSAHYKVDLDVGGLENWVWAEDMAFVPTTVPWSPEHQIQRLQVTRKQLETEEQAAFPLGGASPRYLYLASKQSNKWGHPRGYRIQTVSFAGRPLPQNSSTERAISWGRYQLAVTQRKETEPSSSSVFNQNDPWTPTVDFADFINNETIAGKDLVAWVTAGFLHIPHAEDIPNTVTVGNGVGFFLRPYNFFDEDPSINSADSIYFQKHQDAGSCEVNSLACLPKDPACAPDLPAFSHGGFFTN
Assay: Inhibition of bovine plasma VAP-1 using 6-(5-Pheny1-2H-tetrazol-2-yl)hexan-1-amine as substrate preincubated with enzyme for 15 mins followed by substrate addition measured after 30 mins by UV-HPLC analysis
Format: cell-free
assay.endpoint: IC50

>>> df
                        structure_as_smiles  assay_endpoint  assay_value
0  CN(Cc1cccc(Cn2nnc(-c3ccccc3)n2)c1)C(=O)CN            IC50      > 10 µM
1          NCC(=O)NCCCCCCn1nnc(-c2cccnc2)n1            IC50      > 10 µM
2    NCC(=O)Nc1ccc(CCn2nnc(-c3ccccc3)n2)cc1            IC50      > 10 µM
3             NCC(=O)NCCCn1nnc(-c2ccccc2)n1            IC50      > 10 µM
4          NCC(=O)NCCCCCCn1ccc(-c2ccccc2)n1            IC50      > 10 µM
5          NCC(=O)NCCCCCCn1cnc(-c2ccccc2)c1            IC50      > 10 µM
6          NCC(=O)NCCCCCCn1nnc(-c2ccccn2)n1            IC50      > 10 µM
